Test system: BT-549 breast
Assay: NCI-60 one-dose screen, 48 h (100 = growth as untreated, 0 = no growth, -100 = all killed)
Settings: 10 µM unless noted
This is part of a sample that, as a whole, favours compounds with a hit. Of some 83,000 tested, about 20% had one in any assay.
Given measured growth, output criterion met if it is greater than or equal to 90% and criterion not met if not.

Completed entries (count: 5):
Cn1cc(C=O)c2nccnc21 = criterion met
C=C1C[C@](OC)([C@H](O)C(=O)N[C@@H](OC)[C@@H]2C[C@@H](O)C(C)(C)[C@@H](C[C@@H](COC)OC)O2)O[C@H](C)[C@@H]1C = criterion not met
CNC12C3C4C1C1C2C3C41C(=O)N[C@H](C(=O)N(C)[C@H](C[C@@H](OC(C)=O)c1nc(C(=O)N[C@@H](Cc2ccccc2)C[C@H](C)C(=O)OC)cs1)C(C)C)C1CC1 (stereo not given in full) = criterion not met
N/C(=N\N=C\c1ccc(-c2ccccc2)cc1)N[N+](=O)[O-] = criterion not met
COc1cc([C@@H]2c3cc4c(cc3[C@H](OC(C)=O)[C@H]3COC(=O)[C@@H]23)OCO4)cc(OC)c1OC = criterion not met

-- ask Answer whether growth of CCOc1ccc(/C=C/[N+](=O)[O-])cc1 is greater than or equal to 90%.
-- reply criterion not met

-- ask Answer whether growth of CC(=O)O[C@H](C[C@H](C(C)C)N(C)C(=O)[C@@H](NC(=O)[C@H]1CCCN1C)C(C)C)c1nc(C(=O)N[C@@H](Cc2ccccc2)C[C@H](C)C(=O)O)c(C)s1 is greater than or equal to 90%.
-- reply criterion not met

-- ask Answer whether growth of Nc1ccc(-c2nc3cc(F)ccc3[se]2)cc1F is greater than or equal to 90%.
-- reply criterion not met

-- ask Answer whether growth of O=C1CC2(CC3(Cl)C(Cl)=C(Cl)C2(Cl)C3(Cl)Cl)C(=O)O1 (stereo not given) is greater than or equal to 90%.
-- reply criterion met

-- ask Answer whether growth of O=C1C2C(C(=O)[N]1[Hg][c]1ccccc1)C1(Cl)C(Cl)=C(Cl)C2(Cl)C1(Cl)Cl (stereo not given) is greater than or equal to 90%.
-- reply criterion not met

-- ask Answer whether growth of C[C@]12CCc3sc(-c4cccc(F)c4)nc3C1=CC[C@@H]1[C@@H]2CC[C@]2(C)C(=O)CC[C@@H]12 is greater than or equal to 90%.
-- reply criterion not met

-- ask Answer whether growth of CC[C@H](C)[C@H](NC(=O)c1ccccn1)C(=O)N(C)[C@H](C[C@@H](OC(C)=O)c1nc(C(=O)N[C@@H](Cc2ccccc2)C[C@H](C)C(=O)OC)cs1)C(C)C is greater than or equal to 90%.
-- reply criterion not met

* * *

System: OVCAR-3 ovarian
Assay: NCI-60 one-dose screen, 48 h
Settings: 10 µM unless noted
Procedure: Growth inhibition of the OVCAR-3 human tumor cell line is measured as a screen for anti-cancer activity. Cells are grown in 96 well plates and exposed to the test compound for 48 hours. Compounds are tested at a single concentration, which is 10^-5 M for most compounds. The reported endpoint is percent growth (GI% or GIPRCNT), where numbers from 0 - 100% represent growth inhibition, and numbers from -100% - 0 represent cell death. For example, a value of 40 represents 60% growth inhibition. […]
Compounds without any hit were thinned out: in the full panel of roughly 83,000, 20% have a hit. Calls of active or inactive are those of the source. How the source made its calls: active means growth percent below 10; inactive means the rest.
Would you mind answering with one of these outcomes? label 1 = active, label 0 = inactive

COC(=O)[C@@H](C)C[C@H](Cc1ccccc1)NC(=O)c1csc([C@@H](C[C@H](C(C)C)N(C)C(=O)[C@@H](NC(=O)CN(C)C)C2CC2)OC(C)=O)n1 = label 1
CNC12C3C4C1C1C2C3C41C(=O)N[C@H](C(=O)N(C)[C@H](C[C@@H](OC(C)=O)c1nc(C(=O)N[C@@H](Cc2ccccc2)C[C@H](C)C(=O)OC)cs1)C(C)C)C1CC1 (some centres not stated) = label 1
CC(=O)Nc1nc2c(s1)CC[C@@]1(C)C2=CC[C@H]2[C@@H]3CC[C@H](O)[C@@]3(C)CC[C@@H]21 = label 0

-- ask Recorded test call requested for CCCCCSC1C2C(=O)C(Br)=CC13CCNc1c(O)c4c5c(c13)=[N+]2CCC=5C=N4 (configuration not stated)
-- reply label 1

-- ask Recorded test call requested for CC(=O)[C@H]1CC[C@H]2[C@@H]3CC[C@H]4C[C@H](N)CC[C@]4(C)[C@H]3CC[C@]12C
-- reply label 0

-- ask Recorded test call requested for Clc1ccc(COC(Cn2ccnc2)c2ccc(Cl)cc2Cl)cc1 (configuration not stated)
-- reply label 0

-- ask Recorded test call requested for CC[C@H](C)[C@H](NC(=O)c1nccn1C)C(=O)N(C)[C@H](C[C@@H](OC(C)=O)c1nc(C(=O)N[C@@H](Cc2ccccc2)C[C@H](C)C(=O)OC)cs1)C(C)C
-- reply label 1
